Test description: Toxicity liver stage against HepG2, at 10uM
Format: cell-based
Parameters: test concentration 10 uM, cell line HepG2-A16-CD81EGFP
Condition summary: human, HepG2-A16-CD81EGFP cells; read-out: INHIBITION
Readout label: cytotoxicity at 10 µM

Consider the worked cases shown below.
Compound: Cc1ccc(S(=O)(=O)N2CC[C@@H]3C[C@H](NC(=O)c4[nH]ncc4Br)[C@@H]32)cc1
cytotoxicity at 10 µM: 4.49%

Compound: CC(C)(C)c1n[nH]c(C2CN(Cc3ncc[nH]3)CCO2)n1 (stereo unspecified)
cytotoxicity at 10 µM: 3.01%

Compound: CN1CCN(S(=O)(=O)N2CCCCC2CCc2ccc(O)cc2)CC1 (stereo unspecified)
cytotoxicity at 10 µM: -1.94%

Compound: CC(=O)NCCNc1nc(-c2ccccn2)nc2c1c(C)nn2C
cytotoxicity at 10 µM: 2.72%

Compound: O=C1CCCc2[nH]c(=O)c(C(=O)N(CC3CCCCC3)C3CC3)cc21
cytotoxicity at 10 µM: -2.56%

For each entry beneath this line, provide reported cytotoxicity at 10 µM.
1. CC(=O)Nc1nc(CS(=O)(=O)Cc2ccccc2)cs1
2. CC(C)C(C(=O)N1CCN(c2nccs2)CC1)n1cncn1 (stereo unspecified)
3. CC(c1cccc(Cl)c1)N(C)CCS(=O)(=O)CCC(N)=O (stereo unspecified)
4. COc1ccc(CN(C)C(=O)CSc2nnc(N)s2)c(OC)c1OC
5. CC(C)(C)CCNC(=O)c1ccc(Cl)c(NS(C)(=O)=O)c1
6. CC(C)CN1CCC(NCCNc2cccnc2)CC1

A)
1: -3.39%; 2: -4.35%; 3: -45.8%; 4: 7.59%; 5: -3.85%; 6: -5.25%

---

Would you kindly list cytotoxicity at 10 µM for each of these molecules?
Test description: Toxicity liver stage against HepG2, at 10uM
Format: cell-based
Set-up: test concentration 10 uM, cell line HepG2-A16-CD81EGFP
Condition summary: human, HepG2-A16-CD81EGFP cells; read-out: INHIBITION
Answers are plain numbers, in %.

For each entry beneath this line, provide reported cytotoxicity at 10 µM.
1. Oc1c(F)cc(CNc2cccc(-c3nnc[nH]3)c2)cc1F
2. N#Cc1cccc(CN2CCC3(CC2)CC(c2ccncc2)C(=O)N3)c1 (configuration not stated)
3. CN(Cc1cc2n(n1)CCNC2)Cc1noc(C2CCC2)n1
4. Cc1ccn(-c2ccccc2NCc2cccnc2)n1
5. O=C(c1cnccn1)N1CCCC2(CCN(Cc3ccsc3)C2)C1 (configuration not stated)
6. CC(C)Oc1ncccc1CNC(=O)c1ccccn1
7. Cc1cc2nc(C3CCCCC3)c(-c3ccnc(NCCO)n3)cn2n1

A)
[-44.2, 3.44, 15.2, 0.508, -2.27, -21.3, -0.0295]

For each entry beneath this line, provide reported cytotoxicity at 10 µM.
1. CNC(=O)[C@@H]1[C@@H](OC(=O)Nc2ccccc2)C(=O)N(C)C12CCNCC2
2. Cn1cc(N2CC3(CCN(Cc4ccoc4)CC3)OCC2=O)cn1
3. COc1cc(C)c(C(C)NC(=O)Nc2nnc(C)s2)cc1OC (configuration not stated)
4. COc1ccc(-c2csc(N)c2C#N)cc1OC
5. CCC(=O)Nc1cccc(C(=O)NCCC2=CSC3=NCCCN23)c1

A)
1: 6.38; 2: -1.66; 3: 1.03; 4: -2.46; 5: 1.93

---

Test description: Toxicity liver stage against HepG2, at 10uM
Format: cell-based
Set-up: test concentration 10 uM, cell line HepG2-A16-CD81EGFP
Condition summary: human, HepG2-A16-CD81EGFP cells; read-out: INHIBITION
Would you kindly list cytotoxicity at 10 µM for each of these molecules?
Numbers only, in %.

Consider the worked cases shown below.
Molecule: COC(=O)NCCC(=O)NC(C)Cc1ccccc1Br (stereo not given)
cytotoxicity at 10 µM (%): -5.29
--
Molecule: COCCCNC(=O)Cn1c(C)cc(=O)n2nc(-c3cccs3)nc12
cytotoxicity at 10 µM (%): 2.05
--
Molecule: Cn1cc(C2COC3(CCN(C(=O)c4ccccn4)CC3)C2)cn1 (stereo not given)
cytotoxicity at 10 µM (%): -87.1
--
Molecule: Cc1nn(CCN2CCSCC2)cc1CNCC1CC1
cytotoxicity at 10 µM (%): -7.03
--
Molecule: COc1c(CNC(c2ccc(F)cc2)c2nccn2C)c(C)nn1C (stereo not given)
cytotoxicity at 10 µM (%): -12.7
--
Molecule: CSCCC(C)(O)CNC(=O)Nc1ccccc1C (stereo not given)
cytotoxicity at 10 µM (%): -1.44
--
Molecule: Cc1ncc(CNc2cnccc2CO)s1
cytotoxicity at 10 µM (%): -24.7
--
Molecule: CN1CCCC1CCNC(=O)Nc1ccccc1 (stereo not given)
cytotoxicity at 10 µM (%): 0.238

For each entry beneath this line, provide reported cytotoxicity at 10 µM.
1. OC(CNc1ccncn1)CN1CCCCCC1 (stereo not given)
2. CCC(O)Cn1nc(CCSC)nc1-c1ccc2c(c1)OCCO2 (stereo not given)
3. CNc1cc(C)nc(C2COCCN2CCc2ccccc2)n1 (stereo not given)
4. N#CC1(C(=O)N2CCN(c3nccs3)CC2)CCCCC1
5. O=C(c1cccc(CN2CCCC2)c1)N1CCCC(n2cncn2)C1 (stereo not given)

A)
1. -0.271
2. -0.268
3. 2.52
4. -8.24
5. -11.9

For each entry beneath this line, provide reported cytotoxicity at 10 µM.
1. CCc1nccn1C1CCCN(C(=O)c2c(C)nsc2NC)C1 (stereo not given)
2. COCC1(CNC(=O)Nc2cc(F)ccc2OC)CCCC1
3. c1ccc2c(c1)OCCC2NCc1ccc(N2CCOCC2)cc1 (stereo not given)
4. COc1cc(CNc2nc3c(c(=O)[nH]2)CCNC3)cc(OC)c1OC
5. Cc1ccc(-c2noc(CN3CC(n4cc(C)cn4)C3)n2)cc1

A)
[-5.86, 5.17, -13.7, 4.72, -3.86]

For each entry beneath this line, provide reported cytotoxicity at 10 µM.
1. CCn1cc(NC(=O)N2CCN(CCSc3ccccc3)CC2)cn1
2. Fc1cnc(N2CCC3(CCCN(c4nncs4)C3)C2)nc1 (stereo not given)
3. Cc1c(Br)cnn1CCC(=O)N(C)Cc1c(Cl)cnn1C
4. CC(C)[C@H](C)NC1CCN(c2ccc(-c3cscn3)cc2)CC1
5. Cc1ccc(Sc2ccc(CN3CCC4(CCCNC4=O)C3)o2)cc1 (stereo not given)

A)
1. -0.095
2. 2.15
3. -13.7
4. -50.8
5. -3.68

For each entry beneath this line, provide reported cytotoxicity at 10 µM.
1. CN1Cc2ccccc2CC2(CCN(Cc3nccn3C)CC2)C1=O
2. Cc1cccc(OCCNC(=O)CN2CCN(C)CC2C)c1 (stereo not given)

A)
1. 7.81
2. -2.66

---

Would you kindly list cytotoxicity at 10 µM for each of these compounds?
Test description: Toxicity liver stage against HepG2, at 10uM
Assay type: cell-based
Design: test concentration 10 uM, cell line HepG2-A16-CD81EGFP
Condition summary: human, HepG2-A16-CD81EGFP cells; read-out: INHIBITION
Numbers only, in %.

For each entry beneath this line, provide reported cytotoxicity at 10 µM.
1. C[C@@H]1CN(CCc2ccccc2)C[C@]12CCN(CC(=O)N(C)C)C2=O
2. O=C(NCc1csc(Br)c1)N1CCC(O)CC1
3. Cc1cc(C(=O)N2CC(O)CO2)c2cccc(C)c2n1 (stereo not drawn)
4. O=C(NCc1cn2c(n1)SCC2)c1ccc(CN2CCCCC2)cc1

A)
-4.19
-11.8
7.13
-1.08

For each entry beneath this line, provide reported cytotoxicity at 10 µM.
1. CC(C)n1ccnc1CN1CCCN(C(=O)c2ncccc2O)CC1
2. COCC1CN(S(=O)(=O)Cc2ccccc2)Cc2c1cnn2C (stereo not drawn)
3. CC(C)c1noc(CCC(=O)NC(C)c2nnc3n2CCCCC3)n1 (stereo not drawn)
4. CS(=O)(=O)NCC1CCCN(C(=O)c2ccc3c(c2)CCCC3)C1 (stereo not drawn)

A)
1. -3.45
2. -3.61
3. -4.35
4. -3.54

For each entry beneath this line, provide reported cytotoxicity at 10 µM.
1. COc1ccc2c(C)nc(N3C[C@@H](C)O[C@@H](C)C3)nc2c1
2. CNC(=O)CN(C)Cc1ccc(F)cc1Cl

A)
[6.77, -2.9]

For each entry beneath this line, provide reported cytotoxicity at 10 µM.
1. Cc1noc(C)c1CN1C[C@@H]2COC[C@@H](C(=O)N3CCCCO3)[C@@H]2C1
2. CCCc1nnc(N2CCN(c3ccccc3F)CC2)o1
3. Clc1cc(Cl)cc(CN2CCC(NCc3ncc[nH]3)CC2)c1
4. Cc1ccc(N2CCCN(C(=O)c3cccc4c3ccn4C)CC2)nn1
5. Cc1nc(C)c(CCN2CCC(Oc3ccccc3F)CC2)s1
6. Cc1cc(S(=O)(=O)NCC(C)(C)N)c(F)cc1F

A)
-71.7
5.85
18.4
0.983
42.9
3.8
